SYSTEM: Delta-type opioid receptor (Homo sapiens)
ASSAY_REMARKS: Displacement of [3H]diprenorphine from delta opioid receptor (unknown origin) expressed in CHO cells membranes
REPORTED_ENDPOINT: Ki (nM)
Numbers only, in nM.

MOLECULE: CCOC(=O)C(CN1CC[C@@](C)(c2cccc(O)c2)[C@@H](C)C1)OC(=O)[C@H]1Cc2ccc(O)cc2CN1 (stereo partly drawn)
Ki / nM: 1060

MOLECULE: C[C@H]1CN(CCCOC(=O)[C@H]2Cc3ccc(O)cc3CN2)CC[C@@]1(C)c1cccc(O)c1
Ki / nM: 221

Please examine the following record next.
Item `C[C@H]1CN(CCOC(=O)[C@H]2Cc3ccc(O)cc3CN2)CC[C@@]1(C)c1cccc(O)c1` : provide Ki
475

* * *

ASSAY_REMARKS: Clearance in rat at 1 mg/kg, iv
Assay type: ADME, organism-based
Parameters: dose 1 mg/kg, route intravenous
STUDY_CONDITIONS: in vivo
REPORTED_ENDPOINT: clearance
Express your answer as a number followed by its unit.

Complete the entry with clearance for Cc1cc(C)cc([C@@H]2CCCN2Cc2ccc(Oc3ccc(C(N)=O)cc3F)cc2)c1 [ATICAPRANT]
89.3 mL/min/kg

* * *

SYSTEM: Kappa-type opioid receptor (Homo sapiens, UniProt P41145)
Sequence (P41145 whole entry): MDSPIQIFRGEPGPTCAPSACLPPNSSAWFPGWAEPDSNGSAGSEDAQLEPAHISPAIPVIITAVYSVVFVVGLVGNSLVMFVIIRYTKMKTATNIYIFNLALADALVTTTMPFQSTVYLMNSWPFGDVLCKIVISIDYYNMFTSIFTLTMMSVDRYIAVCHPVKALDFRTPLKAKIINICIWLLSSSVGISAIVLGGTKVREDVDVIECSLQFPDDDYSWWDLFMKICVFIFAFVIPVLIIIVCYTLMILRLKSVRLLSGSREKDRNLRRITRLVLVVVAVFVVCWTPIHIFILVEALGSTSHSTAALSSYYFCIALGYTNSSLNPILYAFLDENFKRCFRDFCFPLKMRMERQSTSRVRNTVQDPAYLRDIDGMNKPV
ASSAY_REMARKS: Inhibition of kappa opioid receptor (unknown origin) using dynorphin A by DiscoveryRx b-arrestin PathHunter assay
REPORTED_ENDPOINT: IC50 (nM)
One number for each entry, in nM.

These solved cases illustrate the format of a correct answer.
SMILES_ENTRY: COc1ccc(N2CCN(CCCNC(=O)Cn3c(=O)c4cccn4c4c(C)ccnc43)CC2)c(OC)c1
VAL: 190

SMILES_ENTRY: CCc1ccc(S(=O)(=O)NCc2ccc(C(=O)NCCN(Cc3ccccc3)C(C)C)cc2)cc1
VAL: 1120

SMILES_ENTRY: COc1ccc(N2CCN(CCCNC(=O)Cn3c(=O)c4cccn4c4cccnc43)CC2)cc1
VAL: 1950

SMILES_ENTRY: Cc1ccnc2c1n1cccc1c(=O)n2CC(=O)NCCCN1CCN(c2ccc(Cl)cc2)CC1
VAL: 690

Consider the record given below.
Output measured IC50 for this item: `Cc1ccc(S(=O)(=O)NCc2ccc(C(=O)NCCN(Cc3ccccc3)C(C)(C)C)cc2)cc1`
60

* * *

SYSTEM: Delta-type opioid receptor (Homo sapiens, UniProt P41143)
Sequence (P41143 whole entry): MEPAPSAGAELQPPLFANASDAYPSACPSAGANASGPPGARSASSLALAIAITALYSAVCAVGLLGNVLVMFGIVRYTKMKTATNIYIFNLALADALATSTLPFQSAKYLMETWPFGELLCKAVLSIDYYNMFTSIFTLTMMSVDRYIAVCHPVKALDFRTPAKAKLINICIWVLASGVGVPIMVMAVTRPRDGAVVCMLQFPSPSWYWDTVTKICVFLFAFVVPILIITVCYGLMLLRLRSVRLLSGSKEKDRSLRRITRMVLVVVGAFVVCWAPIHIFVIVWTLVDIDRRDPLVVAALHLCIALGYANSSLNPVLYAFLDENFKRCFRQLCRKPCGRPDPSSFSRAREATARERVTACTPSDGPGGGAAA
ASSAY_REMARKS: Inhibition of delta opioid receptor (unknown origin) using SNC-80 by high content imaging beta-arrestin translocation assay
pIC50: −log10 of the molar value.
REPORTED_ENDPOINT: pIC50

SMILES_ENTRY: COc1ccc(N2CCN(CCCNC(=O)Cn3c(=O)c4cccn4c4ccccc43)CC2)cc1
pIC50: < 4.49

Below is a list of compounds. For each, state its recorded pIC50.
1. Cc1ccc(S(=O)(=O)NCc2ccc(C(=O)NCCN(Cc3ccccc3)C(C)(C)C)cc2)cc1
2. COc1ccc(N2CCN(CCCNC(=O)Cn3c(=O)c4cccn4c4c(C)ccnc43)CC2)cc1
3. COc1ccc(N2CCN(CCCNC(=O)Cn3c(=O)c4cccn4c4cccnc43)CC2)cc1
4. Cc1ccnc2c1n1cccc1c(=O)n2CC(=O)NCCCN1CCN(c2ccc(Cl)cc2)CC1

1. < 4.49
2. < 4.49
3. < 4.49
4. < 4.49
